experiment: pKa of API-001; assay type: physicochemical
PROPERTY: pKa
Number only, no unit.

*Q* What does the data say about its pKa? Entry: Cc1cc(OCCN2CCOCC2)nn1-c1ccc2ccccc2c1.Cl [API-001, hydrochloride]
*A* 6.8
